- System: EKVX
- Test summary: NCI tumour cell line growth inhibition, 48 h
Calls of active or inactive are those of the source. No stated cut-off is given here; in the data, active = GI50 up to about 1.1 µM and inactive = higher.
Assay metric: GI50

The reported value for C/C1=C\CC[C@@]2(C)O[C@@H]2[C@H]2OC(=O)C(C)C2C[C@H]1O (stereo not given in full) in terms of GI50 is > 100 µM (inactive)

The reported value for COc1ccc(/C=C2/CSCC3=C2N=C(S)NC3c2ccc(OC)c(OC)c2OC)c(OC)c1OC (stereo not given) in terms of GI50 is 51.3 µM (inactive)

The reported value for O=C(CC1(O)C(=O)Nc2ccc(Br)cc21)c1cccc([N+](=O)[O-])c1 (stereo not given) in terms of GI50 is 40.7 µM (inactive)

The reported value for CCN(CC)CCOC(NC(C)=O)(c1ccccc1)c1ccccc1 in terms of GI50 is > 100 µM (inactive)

The reported value for CC(=O)C1(Cc2cccc3ccccc23)S(=O)(=O)OCCOS1(=O)=O in terms of GI50 is 18.5 µM (inactive)

---

- Tested on: NCI-H226
- Test summary: NCI tumour cell line growth inhibition, 48 h
The source made the active and inactive calls. Cut-off read from the data, not from the text of the source: active = GI50 up to about 1.1 µM and inactive = higher.
Assay metric: GI50

The reported value for COc1ccc(/C=C/C(=O)c2sc(-c3cccnc3)nc2C)cc1 in terms of GI50 is 23.8 µM (inactive)

The reported value for O=c1cc(-c2ccc(Cl)cc2)oc2cc(OCCCOc3ccc4c(=O)cc(-c5ccc(Cl)cc5)oc4c3)ccc12 in terms of GI50 is > 100 µM (inactive)

The reported value for COC(=O)c1cc(CC(C)C)c2c(c1)[nH]c1ccccc12 in terms of GI50 is 28.7 µM (inactive)

The reported value for CCCCCCCCCCCC[S+](C)C in terms of GI50 is 1.77 µM (inactive)

The reported value for O=C1c2cc([N+](=O)[O-])cc3cc([N+](=O)[O-])cc(c23)C(=O)N1CCCNCCNCCCN1C(=O)c2cc([N+](=O)[O-])cc3cc([N+](=O)[O-])cc(c23)C1=O in terms of GI50 is 0.0641 µM (active)

The reported value for NC1=NS(=O)(=O)N=C(N)C1=Cc1ccc([N+](=O)[O-])o1 in terms of GI50 is 30.8 µM (inactive)

The reported value for CCOC(=O)COc1cc(-c2ccccc2)nc2cc(F)ccc12 in terms of GI50 is > 100 µM (inactive)

The reported value for COc1ccc(-c2ccccc2)c(N/N=C2\CCCNC2=O)c1 in terms of GI50 is > 100 µM (inactive)

The reported value for COc1cc(/C=N/c2ccc(Oc3ccc(Cl)cc3)c(Cl)c2)cc(OC)c1OC in terms of GI50 is 26.6 µM (inactive)

The reported value for O=c1[nH]c(S)nc2c1sc(=S)n2-c1ccccc1 in terms of GI50 is > 100 µM (inactive)

The reported value for N#CCC12CC=CCC1=C(O)C(=O)c1ccc(O)cc12 (centres undefined) in terms of GI50 is 68.5 µM (inactive)

The reported value for COC(=O)[C@]1(C)CCC[C@@]2(C)C1CC[C@]13C=C(C(C)C)[C@H](CC21)CC3(Cl)C#N (some centres undefined) in terms of GI50 is 22.8 µM (inactive)

The reported value for CC[C@@]1(O)C(=O)OCc2c1cc1n(c2=O)Cc2c-1nc1ccccc1c2/C=N\NC(=O)C(N)CC(C)C (some centres undefined) in terms of GI50 is 0.0277 µM (active)

The reported value for COc1cc(OCCN(C)C)c2[nH]c(C(=O)N3CC(CCl)c4ccc(N)cc43)cc2c1 (centres undefined) in terms of GI50 is 0.0865 µM (active)

The reported value for COC(=O)C(=O)C(C(=O)C(=O)Nc1ccc(Cl)c(Cl)c1)c1nc2ccc(C(=O)c3ccccc3)cc2nc1O (centres undefined) in terms of GI50 is 56.4 µM (inactive)

The reported value for C1CN(P2(N3CC3)=NP(N3CC3)(N3CC3)=NP(N3CC3)(N3CC3)=N2)CCO1 (centres undefined) in terms of GI50 is > 85.5 µM (inactive)

The reported value for Cc1ccc(OCC2OC(n3cnc4c(N(C)C)nc(Br)nc43)CC2Oc2ccc(C)cc2)cc1 (centres undefined) in terms of GI50 is > 100 µM (inactive)

The reported value for Clc1cccc(N/N=N/c2ccc(-c3nc4ccccc4s3)cc2)c1 in terms of GI50 is 94.8 µM (inactive)

The reported value for O=c1oc2ccccc2cc1-c1nc2ccccc2c(=O)[nH]1 in terms of GI50 is > 100 µM (inactive)

The reported value for COc1c2c(nc3ccccc13)-c1cc(C(CC(=O)OC(C)(C)C)C(=O)OC(C)C)c(CO)c(=O)n1C2 (centres undefined) in terms of GI50 is 67.8 µM (inactive)

The reported value for O=C(c1cc2ccccc2[nH]1)C(O)(c1cc2ccccc2[nH]1)c1cc2ccccc2[nH]1 in terms of GI50 is 50.9 µM (inactive)

The reported value for O=C(Cn1c(-c2ccccc2)cc2ccccc21)N1CCOCC1 in terms of GI50 is > 100 µM (inactive)

The reported value for COC(=O)Cc1c(-c2[nH]c3ccccc3c2CC(=O)OC)[nH]c2ccccc12 in terms of GI50 is > 54.7 µM (inactive)

The reported value for Clc1ccc2cccc3c2c1C1OC3c2ccccc21 (centres undefined) in terms of GI50 is > 100 µM (inactive)

The reported value for COc1ccc(/C(Cl)=C(\C=O)c2ccc(Cl)cc2)cc1 in terms of GI50 is 6.35 µM (inactive)

The reported value for CC1(C)Oc2ccccc2N2O[C@@H]3C(=O)N(c4ccccc4)C(=O)[C@@H]3C21c1ccccc1 (some centres undefined) in terms of GI50 is 55.3 µM (inactive)

The reported value for O=C1NC(Nc2ccccc2Cl)=N/C1=C\c1c(Cl)cccc1Cl in terms of GI50 is 42.5 µM (inactive)

The reported value for CC(=O)OC[C@@]12Cc3ccc(C)c(O)c3[C@]1(C)[C@@H](OC(C)=O)[C@]1(O)[C@H]([C@@H](OC(=O)c3ccccc3)[C@@H](C)[C@H]1OC(C)=O)[C@H]2OC(C)=O in terms of GI50 is > 50 µM (inactive)

The reported value for N#[N+][c-]1c(-c2ccccc2)n[nH]c1=O in terms of GI50 is > 100 µM (inactive)

The reported value for CC(C)[Si]1(C(C)C)OCC2OC3(CO)C(Oc4nc(=O)ccn43)C2O[Si](C(C)C)(C(C)C)O1 (centres undefined) in terms of GI50 is 15.2 µM (inactive)

The reported value for COC(=O)/C(C#N)=C1\CCC(OC)N1C (centres undefined) in terms of GI50 is > 100 µM (inactive)

The reported value for CN(C)CC1CC/C(=C\c2ccc(Cl)cc2)C1=O (centres undefined) in terms of GI50 is 19.9 µM (inactive)

The reported value for Cc1ccc(-c2c(C#N)c(-c3ccc(Cl)cc3)c(C#N)c(=O)n2NS(=O)(=O)c2ccccc2)cc1 in terms of GI50 is 77.3 µM (inactive)

The reported value for C=C(C[C@@H](O)[C@H](C)NC(=O)OCc1ccccc1)C(=O)OC(C)(C)C in terms of GI50 is > 100 µM (inactive)

The reported value for CC(=O)Nc1ccc(C2C(C(=O)Nc3ccccc3)=C(C)NC(C)=C2C(=O)Nc2ccccc2)cc1 in terms of GI50 is > 100 µM (inactive)

The reported value for O=[N+]([O-])C(=C(N1CCOCC1)N1CCOCC1)/C(Cl)=C(\Cl)Br in terms of GI50 is 27.6 µM (inactive)

The reported value for CCCSc1cc(Cl)c(C)cc1S(=O)(=O)n1ccnc1OCCCN(C)C in terms of GI50 is > 100 µM (inactive)

The reported value for COc1ccc(-c2cc(-c3cc(Cl)cc(Br)c3O)nc(O)n2)cc1 in terms of GI50 is 17.5 µM (inactive)

The reported value for CCC12CCC(O)C1N(C)CCC2Sc1ccccc1 (centres undefined) in terms of GI50 is 23.4 µM (inactive)
